# STUDY_TARGET: EGFR^L858R/T790M (Homo sapiens, UniProt P00533, L858R/T790M)
# PROTOCOL: FRET-based Z'-Lyte kinase assay, EGFR L858R/T790M
# Format: biochemical
# Set-up: purchased Invitrogen
# CONDITION_SUMMARY: AV ± SD; 1.5 h incubation
RECORDED_METRIC: IC50
Please answer using a numeric value trailed by its unit.

I looked up C=CC(=O)Nc1cc(C)cc(-n2c(=O)cc(C)c3cnc(Nc4ccc(N5CCN(C)CC5)cc4OC)nc32)c1 [YL143] and its IC50 for EGFR^L858R/T790M (Homo sapiens, UniProt P00533, L858R/T790M) was 2 nM

###

# STUDY_TARGET: EGFR^L858R (Homo sapiens, UniProt P00533, L858R)
# Sequence (P00533 25-1210 L858R): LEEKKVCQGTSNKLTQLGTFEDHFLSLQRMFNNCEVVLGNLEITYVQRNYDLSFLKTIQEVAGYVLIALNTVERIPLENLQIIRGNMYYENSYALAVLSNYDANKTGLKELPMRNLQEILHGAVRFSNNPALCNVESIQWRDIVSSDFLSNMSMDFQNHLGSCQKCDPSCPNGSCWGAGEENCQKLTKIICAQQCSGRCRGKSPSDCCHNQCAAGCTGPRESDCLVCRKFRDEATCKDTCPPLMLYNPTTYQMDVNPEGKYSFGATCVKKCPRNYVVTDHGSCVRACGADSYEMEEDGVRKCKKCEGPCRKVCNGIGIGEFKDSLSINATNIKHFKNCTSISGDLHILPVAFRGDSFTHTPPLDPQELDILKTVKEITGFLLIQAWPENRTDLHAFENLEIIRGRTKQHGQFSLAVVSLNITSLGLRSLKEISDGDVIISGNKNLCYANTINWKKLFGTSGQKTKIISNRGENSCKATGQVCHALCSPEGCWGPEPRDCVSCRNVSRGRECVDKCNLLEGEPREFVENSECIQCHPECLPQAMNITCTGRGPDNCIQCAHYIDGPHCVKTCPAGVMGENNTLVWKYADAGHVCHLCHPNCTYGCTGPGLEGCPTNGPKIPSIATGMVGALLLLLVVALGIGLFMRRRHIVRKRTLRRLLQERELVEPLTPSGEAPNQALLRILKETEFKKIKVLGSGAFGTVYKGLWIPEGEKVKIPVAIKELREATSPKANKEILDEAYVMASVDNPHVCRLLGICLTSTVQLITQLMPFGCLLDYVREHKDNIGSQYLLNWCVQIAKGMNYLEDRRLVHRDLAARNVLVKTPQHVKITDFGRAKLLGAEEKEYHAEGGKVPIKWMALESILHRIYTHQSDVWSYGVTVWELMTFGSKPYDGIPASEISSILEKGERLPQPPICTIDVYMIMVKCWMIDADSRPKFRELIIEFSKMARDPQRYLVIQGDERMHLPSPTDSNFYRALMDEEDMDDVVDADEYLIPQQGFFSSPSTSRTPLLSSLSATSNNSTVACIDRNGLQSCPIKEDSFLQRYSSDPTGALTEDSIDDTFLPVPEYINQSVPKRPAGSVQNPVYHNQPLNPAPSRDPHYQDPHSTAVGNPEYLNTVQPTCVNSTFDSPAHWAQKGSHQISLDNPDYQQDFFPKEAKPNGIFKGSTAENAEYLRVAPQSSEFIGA
# PROTOCOL: FRET-based Z'-Lyte kinase assay, EGFR L858R
# CONDITION_SUMMARY: AV ± SD; 1.5 h incubation
RECORDED_METRIC: pIC50
Numbers only, as −log10 of the molar value.

Entry C=CC(=O)Nc1cc(C)cc(-n2c(=O)cc(C)c3cnc(Nc4ccc(N5CCN(C)CC5)cc4OC)nc32)c1 [YL143] — recorded pIC50 = 7.31

###

# STUDY_TARGET: EGFR^WT (Homo sapiens)
# Construct: purchased Invitrogen
# PROTOCOL: FRET-based Z'-Lyte kinase assay, EGFR WT
# Type: biochemical
# CONDITION_SUMMARY: AV ± SD; 1.5 h incubation
RECORDED_METRIC: pIC50
Answers are plain numbers, as −log10 of the molar value.

Entry C=CC(=O)Nc1cc(C)cc(-n2c(=O)cc(C)c3cnc(Nc4ccc(N5CCN(C)CC5)cc4OC)nc32)c1 [YL143] — recorded pIC50 = 6.73

###

# STUDY_TARGET: AKT1 (Homo sapiens, UniProt P31749)
# Sequence (P31749 whole entry, species assumed): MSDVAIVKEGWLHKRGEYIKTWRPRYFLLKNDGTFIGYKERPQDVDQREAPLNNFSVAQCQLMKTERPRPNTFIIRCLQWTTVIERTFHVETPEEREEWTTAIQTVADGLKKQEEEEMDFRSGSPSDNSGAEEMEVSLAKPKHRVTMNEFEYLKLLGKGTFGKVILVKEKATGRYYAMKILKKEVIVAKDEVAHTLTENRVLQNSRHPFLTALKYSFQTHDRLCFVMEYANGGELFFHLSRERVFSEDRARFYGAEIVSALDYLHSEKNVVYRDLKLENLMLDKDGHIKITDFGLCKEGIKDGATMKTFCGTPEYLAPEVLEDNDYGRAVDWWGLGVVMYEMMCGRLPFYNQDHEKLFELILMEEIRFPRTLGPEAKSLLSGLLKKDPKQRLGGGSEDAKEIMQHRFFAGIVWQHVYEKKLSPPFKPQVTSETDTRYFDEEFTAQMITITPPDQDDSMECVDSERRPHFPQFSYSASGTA
RECORDED_METRIC: IC50

Entry "C=CC(=O)Nc1cc(C)cc(-n2c(=O)cc(C)c3cnc(Nc4ccc(N5CCN(C)CC5)cc4OC)nc32)c1" — recorded IC50 = > 10 µM

###

# System: A431 (EGFR^WT) cells
# PROTOCOL: CCK-8 cell growth assay, A431
# Format: cell-based
# CONDITION_SUMMARY: Homo sapiens, A-431; CCK-8, 72 h; read-out: antiproliferative IC50 A431
RECORDED_METRIC: IC50

C=CC(=O)Nc1cc(C)cc(-n2c(=O)cc(C)c3cnc(Nc4ccc(N5CCN(C)CC5)cc4OC)nc32)c1 ... > 1 µM

I looked up "C=CC(=O)Nc1cccc(Nc2nc(Nc3ccc(N4CCN(C(C)=O)CC4)cc3OC)ncc2C(F)(F)F)c1" and its IC50 for A431 (EGFR^WT) cells was > 1 µM

###

# STUDY_TARGET: FLT3 (Homo sapiens, UniProt P36888)
RECORDED_METRIC: IC50

Entry "C=CC(=O)Nc1cc(C)cc(-n2c(=O)cc(C)c3cnc(Nc4ccc(N5CCN(C)CC5)cc4OC)nc32)c1" — recorded IC50 = > 10 µM

###

# STUDY_TARGET: PDGFRA (Homo sapiens, UniProt P16234)
RECORDED_METRIC: IC50

Entry C=CC(=O)Nc1cc(C)cc(-n2c(=O)cc(C)c3cnc(Nc4ccc(N5CCN(C)CC5)cc4OC)nc32)c1 [YL143] — recorded IC50 = > 10 µM

###

# STUDY_TARGET: UniProtKB P00519
# Sequence (P00519 whole entry, species assumed): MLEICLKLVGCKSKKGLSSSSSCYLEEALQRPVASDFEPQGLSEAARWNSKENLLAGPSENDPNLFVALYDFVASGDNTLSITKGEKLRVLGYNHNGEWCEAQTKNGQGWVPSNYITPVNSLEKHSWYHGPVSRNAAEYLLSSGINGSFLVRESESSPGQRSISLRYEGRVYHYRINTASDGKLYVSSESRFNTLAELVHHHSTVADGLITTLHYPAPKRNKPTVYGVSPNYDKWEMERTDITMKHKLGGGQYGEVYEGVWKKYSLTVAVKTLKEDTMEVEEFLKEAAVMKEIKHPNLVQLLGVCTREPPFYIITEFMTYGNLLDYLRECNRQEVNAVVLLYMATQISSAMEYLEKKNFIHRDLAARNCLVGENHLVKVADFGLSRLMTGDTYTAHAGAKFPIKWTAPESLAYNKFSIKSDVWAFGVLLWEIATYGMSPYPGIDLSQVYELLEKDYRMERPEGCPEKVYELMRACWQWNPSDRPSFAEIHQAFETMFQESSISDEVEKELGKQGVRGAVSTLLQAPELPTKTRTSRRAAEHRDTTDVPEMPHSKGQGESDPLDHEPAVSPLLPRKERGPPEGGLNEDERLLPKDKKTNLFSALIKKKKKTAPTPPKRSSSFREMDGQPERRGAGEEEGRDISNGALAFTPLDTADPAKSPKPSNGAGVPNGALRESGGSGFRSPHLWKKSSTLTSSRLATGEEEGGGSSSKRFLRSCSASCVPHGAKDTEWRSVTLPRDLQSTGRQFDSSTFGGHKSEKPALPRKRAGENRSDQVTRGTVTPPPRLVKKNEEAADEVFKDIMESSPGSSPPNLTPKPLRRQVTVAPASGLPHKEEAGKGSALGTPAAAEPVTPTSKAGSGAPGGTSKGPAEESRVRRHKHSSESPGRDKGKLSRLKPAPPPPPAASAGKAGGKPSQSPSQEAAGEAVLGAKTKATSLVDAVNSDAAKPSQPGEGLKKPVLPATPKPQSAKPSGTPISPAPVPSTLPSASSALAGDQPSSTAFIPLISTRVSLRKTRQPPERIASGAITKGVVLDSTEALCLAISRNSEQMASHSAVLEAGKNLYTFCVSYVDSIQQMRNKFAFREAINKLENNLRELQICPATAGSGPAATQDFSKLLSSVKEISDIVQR
pIC50: −log10 of the molar value.
RECORDED_METRIC: pIC50

Entry "C=CC(=O)Nc1cc(C)cc(-n2c(=O)cc(C)c3cnc(Nc4ccc(N5CCN(C)CC5)cc4OC)nc32)c1" — recorded pIC50 = < 5.00

###

# PROTOCOL: Pharmacokinetic study in SD rats
# Type: in vivo, rat
# CONDITION_SUMMARY: Sprague-Dawley, rat, plasma, po, 25 mg/kg, P.O. 25 mg/Kg
RECORDED_METRIC: half-life (h)
Give bare numbers, in h.

Entry C=CC(=O)Nc1cc(C)cc(-n2c(=O)cc(C)c3cnc(Nc4ccc(N5CCN(C)CC5)cc4OC)nc32)c1 [YL143] — recorded half-life = 6.1

###

# Test system: BaF3-EGFR ^L858R
# PROTOCOL: CCK-8 assay, BaF3-EGFR L858R stable cells
# Format: cell-based
# CONDITION_SUMMARY: Ba/F3 EGFR-L858R, read-out: anti-proliferative activity BaF3-EGFR L858R
RECORDED_METRIC: IC50 (nM)
Numbers only, in nM.

Entry "C=CC(=O)Nc1cc(Nc2nccc(-c3cn(C)c4ccccc34)n2)c(OC)cc1N(C)CCN(C)C" — recorded IC50 = 24

###

# PROTOCOL: Pharmacokinetic study in SD rats
# Assay type: in vivo, rat
# CONDITION_SUMMARY: Sprague-Dawley, rat, plasma, po, P.O. 25 mg/Kg
RECORDED_METRIC: Tmax (h)
One number for each entry, in h.

Entry C=CC(=O)Nc1cc(C)cc(-n2c(=O)cc(C)c3cnc(Nc4ccc(N5CCN(C)CC5)cc4OC)nc32)c1 [YL143] — recorded Tmax = 6.67

###

# STUDY_TARGET: EGFR^T790M (Homo sapiens, UniProt P00533, T790M)
# PROTOCOL: FRET-based Z'-Lyte kinase assay, EGFR T790M
# CONDITION_SUMMARY: AV ± SD; 1.5 h incubation
RECORDED_METRIC: pIC50
Answers are plain numbers, as −log10 of the molar value.

Entry "C=CC(=O)Nc1cc(C)cc(-n2c(=O)cc(C)c3cnc(Nc4ccc(N5CCN(C)CC5)cc4OC)nc32)c1" — recorded pIC50 = 8.11

###

# STUDY_TARGET: CSF1R (Homo sapiens)
pIC50: −log10 of the molar value.
RECORDED_METRIC: pIC50

Entry "C=CC(=O)Nc1cc(C)cc(-n2c(=O)cc(C)c3cnc(Nc4ccc(N5CCN(C)CC5)cc4OC)nc32)c1" — recorded pIC50 = < 5.00

###

# STUDY_TARGET: IGF1R (Homo sapiens, UniProt P08069)
# Sequence (P08069 31-1367, species assumed): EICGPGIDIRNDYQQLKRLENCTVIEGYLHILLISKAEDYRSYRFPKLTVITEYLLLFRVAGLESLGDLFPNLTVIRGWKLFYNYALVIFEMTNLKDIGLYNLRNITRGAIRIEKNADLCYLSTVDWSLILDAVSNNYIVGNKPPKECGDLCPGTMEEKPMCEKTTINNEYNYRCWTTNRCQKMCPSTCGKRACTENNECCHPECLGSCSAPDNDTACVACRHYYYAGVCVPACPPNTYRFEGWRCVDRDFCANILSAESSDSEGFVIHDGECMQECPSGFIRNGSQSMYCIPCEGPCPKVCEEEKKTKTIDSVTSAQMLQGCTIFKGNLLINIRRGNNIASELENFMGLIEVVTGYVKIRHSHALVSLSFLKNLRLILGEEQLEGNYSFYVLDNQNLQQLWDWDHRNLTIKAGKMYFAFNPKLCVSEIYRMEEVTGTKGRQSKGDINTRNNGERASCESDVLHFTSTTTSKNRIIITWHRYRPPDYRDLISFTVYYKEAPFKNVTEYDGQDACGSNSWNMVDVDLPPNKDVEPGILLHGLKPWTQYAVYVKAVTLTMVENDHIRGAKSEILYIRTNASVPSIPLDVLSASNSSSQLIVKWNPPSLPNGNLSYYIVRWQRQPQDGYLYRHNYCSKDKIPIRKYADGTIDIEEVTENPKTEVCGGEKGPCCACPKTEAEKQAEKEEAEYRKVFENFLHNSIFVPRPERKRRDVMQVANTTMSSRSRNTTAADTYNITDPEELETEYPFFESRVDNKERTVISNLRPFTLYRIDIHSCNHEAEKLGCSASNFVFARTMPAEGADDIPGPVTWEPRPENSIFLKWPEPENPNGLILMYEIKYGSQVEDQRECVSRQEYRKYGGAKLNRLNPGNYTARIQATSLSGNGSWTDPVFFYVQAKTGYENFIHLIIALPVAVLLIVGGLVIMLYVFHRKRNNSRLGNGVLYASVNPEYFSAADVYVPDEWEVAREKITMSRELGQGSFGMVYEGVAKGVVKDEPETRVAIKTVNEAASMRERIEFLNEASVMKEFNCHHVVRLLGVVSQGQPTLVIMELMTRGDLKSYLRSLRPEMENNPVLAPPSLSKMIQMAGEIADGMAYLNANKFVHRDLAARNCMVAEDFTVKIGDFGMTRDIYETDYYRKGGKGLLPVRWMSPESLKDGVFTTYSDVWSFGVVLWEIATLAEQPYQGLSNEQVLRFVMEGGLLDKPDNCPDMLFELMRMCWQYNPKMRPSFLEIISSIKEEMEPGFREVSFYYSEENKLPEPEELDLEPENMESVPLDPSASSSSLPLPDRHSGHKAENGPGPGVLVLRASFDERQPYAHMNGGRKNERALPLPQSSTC
# PROTOCOL: FRET-based Z'-Lyte kinase assay, IGF1R
# Assay type: biochemical
# CONDITION_SUMMARY: AV ± SD; 1.5 h incubation
RECORDED_METRIC: IC50 (nM)
Answers are plain numbers, in nM.

C=CC(=O)Nc1cc(Nc2nccc(-c3cn(C)c4ccccc34)n2)c(OC)cc1N(C)CCN(C)C [AZD9291, Osimertinib] ... 277

Alright, here's another molecule for you.
I looked up C=CC(=O)Nc1cccc(Nc2nc(Nc3ccc(N4CCN(C(C)=O)CC4)cc3OC)ncc2C(F)(F)F)c1 [CO1686, Rociletinib] and its IC50 for IGF1R (Homo sapiens, UniProt P08069) was 47.5

###

# PROTOCOL: Pharmacokinetic study in SD rats
# Type: in vivo, rat
# CONDITION_SUMMARY: Sprague-Dawley, rat, plasma, iv, 5 mg/kg, I.V. 5 mg/Kg
# Description: Sprague Dawley (SD) rats (180–220 g) were fasted overnight before drug administration. They could eat food and drink water freely during the study. Rats were grouped and treated with 25 and 5 mg/kg of YL143 in vehicle via oral gavage and i.v., respectively. […] Drug concentration was quantitatively detected using an API 300 mass spectrometer (Applied Biosystems, Canada) with TurboIonSpray source interface. Data acquisition and quantitation were performed using Analyst 1.4 (Applied Biosystems, Canada). […]
RECORDED_METRIC: half-life (h)
One number for each entry, in h.

Entry "C=CC(=O)Nc1cc(C)cc(-n2c(=O)cc(C)c3cnc(Nc4ccc(N5CCN(C)CC5)cc4OC)nc32)c1" — recorded half-life = 1.36

###

# STUDY_TARGET: ZAK (Homo sapiens)
# Sequence (Q9NYL2 whole entry, species assumed): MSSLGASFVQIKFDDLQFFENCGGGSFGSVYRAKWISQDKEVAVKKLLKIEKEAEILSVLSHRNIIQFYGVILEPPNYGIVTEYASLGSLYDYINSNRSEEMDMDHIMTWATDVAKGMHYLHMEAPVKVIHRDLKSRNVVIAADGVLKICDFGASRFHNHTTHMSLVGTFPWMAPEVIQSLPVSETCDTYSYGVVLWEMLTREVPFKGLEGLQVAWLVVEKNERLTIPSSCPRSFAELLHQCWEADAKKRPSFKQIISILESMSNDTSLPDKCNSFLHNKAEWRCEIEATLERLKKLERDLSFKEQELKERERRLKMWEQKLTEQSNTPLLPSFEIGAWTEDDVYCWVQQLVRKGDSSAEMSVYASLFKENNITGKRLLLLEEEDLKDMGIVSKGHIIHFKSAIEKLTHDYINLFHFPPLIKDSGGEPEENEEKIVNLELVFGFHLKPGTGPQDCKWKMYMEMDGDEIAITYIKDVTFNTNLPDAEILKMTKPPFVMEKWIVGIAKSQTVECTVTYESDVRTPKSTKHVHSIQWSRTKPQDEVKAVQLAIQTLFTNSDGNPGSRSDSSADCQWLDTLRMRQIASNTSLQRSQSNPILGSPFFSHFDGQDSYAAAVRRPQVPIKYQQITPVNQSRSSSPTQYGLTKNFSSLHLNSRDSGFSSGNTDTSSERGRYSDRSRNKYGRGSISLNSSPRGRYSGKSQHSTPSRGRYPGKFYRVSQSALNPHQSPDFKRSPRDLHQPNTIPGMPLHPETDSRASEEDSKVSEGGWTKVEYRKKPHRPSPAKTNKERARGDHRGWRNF
pIC50: −log10 of the molar value.
RECORDED_METRIC: pIC50

Entry "C=CC(=O)Nc1cc(C)cc(-n2c(=O)cc(C)c3cnc(Nc4ccc(N5CCN(C)CC5)cc4OC)nc32)c1" — recorded pIC50 = < 5.00

###

# STUDY_TARGET: AKT3 (Homo sapiens)
RECORDED_METRIC: IC50

I looked up "C=CC(=O)Nc1cc(C)cc(-n2c(=O)cc(C)c3cnc(Nc4ccc(N5CCN(C)CC5)cc4OC)nc32)c1" and its IC50 for AKT3 (Homo sapiens) was > 10 µM

###

# System: A549 (EGFR^WT) cells
# PROTOCOL: CCK-8 cell growth assay, A549
# Format: cell-based
# CONDITION_SUMMARY: Homo sapiens, A549; CCK-8, 72 h; read-out: antiproliferative IC50 A549
pIC50: −log10 of the molar value.
RECORDED_METRIC: pIC50

C=CC(=O)Nc1cc(C)cc(-n2c(=O)cc(C)c3cnc(Nc4ccc(N5CCN(C)CC5)cc4OC)nc32)c1 ... < 6.00

Alright, here's another compound for you.
Entry "C=CC(=O)Nc1cccc(Nc2nc(Nc3ccc(N4CCN(C(C)=O)CC4)cc3OC)ncc2C(F)(F)F)c1" — recorded pIC50 = < 6.00

All values here come from paper PMC5911580.
